Test system: SK-MEL-2 melanoma
Test: NCI-60 one-dose screen, 48 h (100 = growth as untreated, 0 = no growth, -100 = all killed)
Settings: 10 µM
Compounds without any hit were thinned out: in the full panel of roughly 83,000, 20% have a hit. The source made the active and inactive calls. The calls were made as follows: active = growth percent below 10; inactive = the rest.
observation-type: growth

| compound | test-system | result |
| --- | --- | --- |
| Cc1ccc(C(=O)NC2c3ccccc3Oc3ccccc32)cc1 | SK-MEL-2 melanoma | 66.4% (inactive) |
| O=[N+]([O-])c1ccccc1N=Nc1ccc(O)cc1O | SK-MEL-2 melanoma | 134% (inactive) |
| CCOC(=O)c1ccc(NC(=S)P(=O)(c2ccccc2)c2ccccc2)cc1 | SK-MEL-2 melanoma | 119% (inactive) |
| NNc1ccccc1C(=O)O | SK-MEL-2 melanoma | 102% (inactive) |
| S=C1CCCCCN1 | SK-MEL-2 melanoma | 105% (inactive) |
| COc1cc(/C=N\Nc2ccccc2)ccc1OC(=O)c1ccccc1 | SK-MEL-2 melanoma | 64.3% (inactive) |
| COC(=O)c1cc(-c2ccc(Cl)c(Cl)c2)[nH]c(=O)c1C#N | SK-MEL-2 melanoma | 120% (inactive) |
| CC(C)OC(C(=O)O)c1ccccc1 (stereo not drawn) | SK-MEL-2 melanoma | 110% (inactive) |
| CCCC(=O)c1cc(C)ccc1OC | SK-MEL-2 melanoma | 103% (inactive) |
| O=S(=O)(O)c1ccc(O)c2ccccc12 | SK-MEL-2 melanoma | 97.2% (inactive) |
| CC1CCC(C(=O)O)N1 (stereo not drawn) | SK-MEL-2 melanoma | 91.5% (inactive) |
| Oc1ccc2c(c1)OCC1(O)Cc3cc(O)c(O)cc3C21 (stereo not drawn) | SK-MEL-2 melanoma | 65.7% (inactive) |
| O=[N+]([O-])c1ccc(S(=O)(=O)NN=C2CCCCC2)cc1 | SK-MEL-2 melanoma | 147% (inactive) |

====

growth for assorted molecules
Test system: SN12C renal
Test: NCI-60 one-dose screen, 48 h (100 = growth as untreated, 0 = no growth, -100 = all killed)
Details: 10 µM
About 83,000 compounds went through this panel and 20% of them were active in at least one assay; those are over-represented in the sample as a whole.

| molecule | growth, % |
| --- | --- |
| Oc1ccccc1-c1nnco1 | 83.2 |
| O=C(O)CCC(NC(=O)OCc1ccccc1)C(=O)O (configuration not stated) | 100 |
| O=C(NN=C1CCCCC1)C(=O)NN=C1CCCCC1 | 106 |
| COc1cc2c(cc1OC)[C@H](C(=O)O)[C@@H](c1ccc(OC(C)C)c(OC)c1)N(C)C2=O | 90.4 |
| FC(F)(F)c1ccc2c(c1)N(CCCN1CCN(C3CC3)CC1)c1ccccc1S2 | 47.7 |
| Cc1c(C(=O)O)c(=O)n(-c2ccccc2)n1C | 105 |
| CCOC(=O)/C(=C/c1ccc(OC)cc1)N(CC)CC | 102 |
| c1csc(-c2cc(-c3cc(-c4cccs4)[nH]n3)n[nH]2)c1 | 97.4 |
| CCc1nc(N)nc(N)c1-c1ccc(Cl)cc1 | 64.7 |
| CN(C)C(C)(C)CC(C)(C)C | 98.3 |
| COc1ccc(OC)c(/C=C2\CCc3ccccc3C2=O)c1 | 61.7 |
| COc1cc(C(=O)NC(=S)Nc2ccc3ccccc3c2)cc(OC)c1OC | 104 |
